The values you see were collected from PubChem BioAssay (NCI).

Test system: MCF7 breast
Experiment: NCI-60 one-dose screen, 48 h (100 = growth as untreated, 0 = no growth, -100 = all killed)
Settings: 10 µM unless noted
Protocol: Growth inhibition of the MCF7 human tumor cell line is measured as a screen for anti-cancer activity. Cells are grown in 96 well plates and exposed to the test compound for 48 hours. Compounds are tested at a single concentration, which is 10^-5 M for most compounds. The reported endpoint is percent growth (GI% or GIPRCNT), where numbers from 0 - 100% represent growth inhibition, and numbers from -100% - 0 represent cell death. For example, a value of 40 represents 60% growth inhibition. […]
The panel holds about 83,000 compounds, 20% with a hit somewhere; the sample as a whole holds those more often.
property: growth (%)
Report the value in % with no unit label.

Consider the reported growth for these compounds:
compound	growth (%)
CC1(C)c2[nH]c3ccccc3c2C[C@]2(C)[C@H]3CC=C4[C@@H]5C[C@@](C)(C(N)=O)CC[C@]5(C)CC[C@@]4(C)[C@]3(C)CC[C@@H]12	29.3
CCSc1nc(NC)c2cc(-c3ccc(C(F)(F)F)cc3)ccc2n1	92.8
C=C1C(=O)O[C@H]2[C@H]1CC/C(COC(=O)CCSCCC(=O)OC/C1=C/CC[C@@]3(C)O[C@H]3[C@H]3OC(=O)C(=C)[C@@H]3CC1)=C\CC[C@@]1(C)O[C@@H]21	9.43
CCN1CCN(Cc2cn(CC(=O)Nc3ccc4c(ccn4Cc4ccccc4)c3)nn2)CC1	99.5
Cc1c(-n2nnc(-c3nc4ccccc4s3)c2N)c(=O)n(-c2ccccc2)n1C	90.6
O=C(Nc1cc(Cl)ccc1O)c1ccc(Nc2ccnc(C(F)(F)F)c2)cc1	22.3
COc1ccc2c(O)c(/C=C3\N=Nc4ccccc43)oc2c1C[C@@H]1CCNC[C@H]1F	18.3
C=C(C)[C@@H]1CC[C@]2(C(=O)O)CC[C@]3(C)[C@H](CC[C@@H]4[C@@]5(C)C[C@@H](Cc6cn(CCO[C@@H]7O[C@H](COC(C)=O)[C@H](OC(C)=O)[C@H](OC(C)=O)[C@H]7OC(C)=O)nn6)[C@H](O)C(C)(C)[C@@H]5CC[C@]43C)[C@@H]12	47.1
CCCc1cc(NC)nc(S(=O)(=O)CC)n1	92.1
O=C(c1ccc(-c2ccccc2)cc1)c1ccc([N+](=O)[O-])cc1	95.9

Asked: # returns recorded growth (system: MCF7 breast) for O=C(CCC(=O)N/N=C/c1ccccc1O)N/N=C/c1ccccc1O
Given back: 39.9

Asked: Find the measured growth: item O=C1NC(=O)c2c1c1c3ccccc3ccc1c1[nH]c3ccc(Br)cc3c21 , target or system MCF7 breast.
Given back: 9.71

Asked: Give recorded growth with MCF7 breast for the following compound: CSc1nnc(-c2cnn3c2NC(c2ccccc2)C3)n1-c1ccc(C(F)(F)F)cc1 (configuration not stated)
Given back: 26.9

---

System: M14 melanoma
Assay: NCI-60 one-dose screen, 48 h
Details: 10 µM unless noted
Compounds without any hit were thinned out: in the full panel of roughly 83,000, 20% have a hit. Active and inactive are the calls of the source. Rule for the calls: active = growth percent below 10; inactive = the rest.
Select the correct class. Options are true (1) = active, false (0) = inactive and nothing else.

molecule	assigned_category
COc1ccc(-c2nc(/C=C3\SC(=NCc4ccccc4)NC3=O)c3ccccn23)cc1	true (1)
Nc1ncnc2c1N=C(c1ccc(Cl)cc1)CC(c1ccc3c(c1)OCO3)N2 (stereo unspecified)	false (0)
CC(=O)c1cc(O)c2ccccc2c1O	false (0)
COc1ccc2nc3ccc(OC)cc3c(SCCCN)c2c1	false (0)
N#Cc1c(N)nnn1Cc1cc(=O)oc2c1ccc1ccccc12	false (0)

Asked: Returns: the outcome recorded for C=C(CNCCc1ccc(O)cc1)[C@@H]1CC[C@]2(CO)CC[C@]3(C)[C@H](CC[C@@H]4[C@@]5(C)CCC(NCCO)C(C)(C)[C@@H]5CC[C@]43C)[C@@H]12 (stereo partly specified) in this assay.
Given back: true (1)
